- experimental-target: Chk1 (Homo sapiens, UniProt O14757)
- Construct: purchased Upstate Biotechnology
- Sequence (O14757 whole entry): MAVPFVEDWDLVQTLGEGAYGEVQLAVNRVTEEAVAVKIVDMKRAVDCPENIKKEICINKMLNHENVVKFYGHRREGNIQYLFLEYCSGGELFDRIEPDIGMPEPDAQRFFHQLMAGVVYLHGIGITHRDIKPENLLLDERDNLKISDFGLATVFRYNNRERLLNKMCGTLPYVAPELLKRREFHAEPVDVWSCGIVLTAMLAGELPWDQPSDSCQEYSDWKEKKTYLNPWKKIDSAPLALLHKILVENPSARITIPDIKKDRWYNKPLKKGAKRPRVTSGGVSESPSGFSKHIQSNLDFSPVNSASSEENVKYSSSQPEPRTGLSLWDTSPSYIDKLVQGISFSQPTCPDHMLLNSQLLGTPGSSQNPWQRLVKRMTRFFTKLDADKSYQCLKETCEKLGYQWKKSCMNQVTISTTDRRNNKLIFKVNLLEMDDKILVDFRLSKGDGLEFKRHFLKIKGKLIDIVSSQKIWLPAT
- protocol-details: Chk1 kinase assay: incorporation of γ-33P ATP into immobilized myelin basic protein
- Assay type: biochemical
- run-parameters: read-out: Chk1 IC50
pIC50: −log10 of the molar value.
# pIC50 listing for each entry below

Suppose we examine the molecule CNC(=O)c1nc(-c2cccc(C(=O)N[C@@H]3CCN(Cc4ccccc4)C3)c2)cnc1N ; what pIC50 value has been reported?
6.00 to 7.30

Look up pIC50 for this molecule: CNC(=O)c1nc(-c2cccc(C(=O)NCc3ccc4c(c3)OCO4)c2)cnc1N
6.00 to 7.30

Sample CCCc1ccc(CNC(=O)c2cccc(-c3cnc(N)c(C(=O)NC)n3)c2)cc1 — what was its pIC50?
6.00 to 7.30

# input molecule: CNC(=O)c1nc(-c2cccc(C(=O)NCc3ccc4c(c3)OCCO4)c2)cnc1N ; wanted: its pIC50
> 7.30

Report pIC50 for CNC(=O)c1nc(-c2noc(C3CCCC3)n2)cnc1N please.
≤ 5.00

---

- experimental-target: Chk1 (Homo sapiens, UniProt O14757)
- Construct: purchased Upstate Biotechnology
- protocol-details: Chk1 kinase assay: incorporation of γ-33P ATP into immobilized myelin basic protein
- Assay type: biochemical
- run-parameters: Table 11; Chk1 only; read-out: Chk1 IC50
observable: IC50

Study these solved cases before continuing.
[
  {
    "molecule": "CCn1nc(-c2nc(-c3cccc(C(=O)N[C@H]4CCc5ccccc54)c3)cnc2N)nc1C1CCCN(C(=O)OCc2ccccc2)C1 (stereo partly drawn)",
    "recorded-measurement": "≥ 10 µM"
  },
  {
    "molecule": "CCn1nc(-c2nc(-c3cccc(C(=O)N[C@H]4CCc5ccccc54)c3)cnc2N)nc1[C@@H]1CCCN(C(=O)OCc2ccccc2)C1",
    "recorded-measurement": "≥ 10 µM"
  }
]

Field: next molecule
Looking for the measured IC50 of CC(C)(C)OC(=O)N1CC[C@H](CNC(=O)c2nc(-c3cccc(C(=O)N[C@@H]4c5ccccc5C[C@@H]4O)c3)cnc2N)C1 , can you help?
≥ 10 µM

---

- experimental-target: Chk1 (Homo sapiens, UniProt O14757)
- Construct: purchased Upstate Biotechnology
- protocol-details: Chk1 kinase assay: incorporation of γ-33P ATP into immobilized myelin basic protein
- Format: biochemical
- run-parameters: Table 11; Chk1 only; read-out: Chk1 IC50
observable: IC50

[
  {
    "compound": "CC(C)(C)OC(=O)N1CCN(C(=O)c2nc(-c3cccc(C(=O)NCc4ccccc4)c3)cnc2N)CC1 [Example 592]",
    "experimental-target": "Chk1 (Homo sapiens, UniProt O14757)",
    "IC50": "≥ 10000 nM"
  }
]

Using the record for CNC(=O)c1nc(-c2cccc(CNC3CCc4cc(F)c(F)cc43)c2)cnc1N (stereo not shown) [Example 476] , report its IC50.
50 to 1000 nM

Reported IC50 for CNC(=O)c1nc(-c2cccc(C(=O)NCc3ccccc3)c2)cnc1N [Example 441] : what is it?
50 to 1000 nM

Look up IC50: CNC(=O)c1nc(-c2cccc(CN[C@H]3CCc4ccccc4C3)c2)cnc1N [Example 454]
< 50 nM

---

Parameter IC50: see the listing below.
- experimental-target: Chk1 (Homo sapiens)
- Construct: purchased Upstate Biotechnology
- protocol-details: Chk1 kinase assay: incorporation of γ-33P ATP into immobilized myelin basic protein
- Type: biochemical
- run-parameters: read-out: Chk1 IC50

Known IC50 results, listed for orientation:
[
  {
    "smiles-code": "CNC(=O)c1nc(-c2cccc(-c3nc4ccccc4[nH]3)c2)cnc1N",
    "recorded-measurement": "50 to 1000 nM"
  },
  {
    "smiles-code": "CNC(=O)c1nc(-c2cccc(C(=O)NCc3ccc(Cl)cc3F)c2)cnc1N",
    "recorded-measurement": "< 50 nM"
  }
]

// map CNC(=O)c1nc(-c2cc(C)cc(C)c2)cnc1N to recorded IC50 (system: Chk1 (Homo sapiens))
1000 to 10000 nM

Identify the measured IC50 of CNC(=O)c1nc(-c2cccc(C(=O)NCc3cc(F)c(F)cc3F)c2)cnc1N for Chk1 (Homo sapiens).
50 to 1000 nM

Query the reported IC50 for Chk1 (Homo sapiens); item: CNC(=O)c1nc(-c2cccc(OCCN3CCC(CCO)CC3)c2)cnc1N
1000 to 10000 nM

---

- experimental-target: Chk1 (Homo sapiens)
- Construct: purchased Upstate Biotechnology
- protocol-details: Chk1 kinase assay: incorporation of γ-33P ATP into immobilized myelin basic protein
- Type: biochemical
- run-parameters: read-out: Chk1 IC50
- Experimental: Chk1 and Chk2 assays were performed by measuring incorporation of γ-^33P ATP into immobilized myelin basic protein (MBP). […] Each data point was measured in duplicate, and at least two duplicate assays were performed for each individual compound determination. […] The above assay procedure can be used to determine the IC50 for inhibition and/or the inhibition constant Ki. […] The Ki for a compound may be determined from the IC50 based on three assumptions. […]
pIC50: −log10 of the molar value.
Measured pIC50 accompanies every entry in the list below.

Solved entries:
[
  {
    "smiles-code": "CNC(=O)c1nc(-c2cccc(C(=O)NCc3ccc(SC)cc3)c2)cnc1N",
    "pIC50": "> 7.30"
  },
  {
    "smiles-code": "CNC(=O)c1nc(-c2cccc(CNCc3cc(F)c(F)c(F)c3)c2)cnc1N",
    "pIC50": "> 7.30"
  },
  {
    "smiles-code": "CNC(=O)c1nc(-c2cccc(NC(=O)Cc3ccc(Cl)cc3)c2)cnc1N",
    "pIC50": "6.00 to 7.30"
  },
  {
    "smiles-code": "CNC(=O)c1nc(-c2cccc(C(=O)NCc3ccc(OCCN4CCOCC4)cc3)c2)cnc1N",
    "pIC50": "6.00 to 7.30"
  }
]

Looking for the measured pIC50 of CNC(=O)c1nc(-c2cccc(C#N)c2)cnc1N , can you help?
5.00 to 6.00

---

- experimental-target: FGFR1 (Homo sapiens, UniProt P11362)
- Sequence (P11362 22-822): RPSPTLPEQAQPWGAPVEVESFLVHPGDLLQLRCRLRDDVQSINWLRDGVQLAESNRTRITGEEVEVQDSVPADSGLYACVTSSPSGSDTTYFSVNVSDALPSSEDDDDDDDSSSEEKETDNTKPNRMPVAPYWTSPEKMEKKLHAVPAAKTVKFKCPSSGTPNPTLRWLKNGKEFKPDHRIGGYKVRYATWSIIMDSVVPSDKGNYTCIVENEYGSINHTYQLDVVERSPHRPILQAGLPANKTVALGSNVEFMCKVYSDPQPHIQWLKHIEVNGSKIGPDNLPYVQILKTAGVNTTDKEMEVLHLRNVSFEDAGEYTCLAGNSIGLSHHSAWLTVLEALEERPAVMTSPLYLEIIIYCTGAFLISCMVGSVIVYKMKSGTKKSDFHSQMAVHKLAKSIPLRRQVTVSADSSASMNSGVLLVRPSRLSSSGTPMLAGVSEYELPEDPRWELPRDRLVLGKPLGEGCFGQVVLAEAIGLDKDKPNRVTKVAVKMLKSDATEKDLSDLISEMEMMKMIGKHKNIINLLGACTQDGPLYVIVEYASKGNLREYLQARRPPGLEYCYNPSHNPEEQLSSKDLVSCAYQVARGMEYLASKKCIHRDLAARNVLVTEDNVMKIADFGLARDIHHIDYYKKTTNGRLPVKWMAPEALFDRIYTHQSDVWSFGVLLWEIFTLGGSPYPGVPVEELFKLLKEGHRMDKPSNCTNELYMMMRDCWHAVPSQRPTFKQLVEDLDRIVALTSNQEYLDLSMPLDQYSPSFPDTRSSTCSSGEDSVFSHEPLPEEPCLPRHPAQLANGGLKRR
pIC50: −log10 of the molar value.
observable: pIC50

Hi! What's the reported pIC50 for NC(=O)c1nc(-c2cccc3ccccc23)cnc1N on FGFR1 (Homo sapiens, UniProt P11362)?
5.00 to 6.00

---

- experimental-target: Chk1 (Homo sapiens, UniProt O14757)
- Construct: purchased Upstate Biotechnology
- protocol-details: Chk1 kinase assay: incorporation of γ-33P ATP into immobilized myelin basic protein
- Type: biochemical
- run-parameters: read-out: Chk1 IC50
- Protocol: Chk1 and Chk2 assays were performed by measuring incorporation of γ-^33P ATP into immobilized myelin basic protein (MBP). […] Each data point was measured in duplicate, and at least two duplicate assays were performed for each individual compound determination. […] The above assay procedure can be used to determine the IC50 for inhibition and/or the inhibition constant Ki. […] The Ki for a compound may be determined from the IC50 based on three assumptions. […]
pIC50: −log10 of the molar value.
This section presents compounds with their documented pIC50 values.

Use these answered entries as a reference point.
[
  {
    "compound": "CNC(=O)c1nc(-c2cccc(C(=O)N[C@@H]3CCN(Cc4ccc(Cl)cc4Cl)C3)c2)cnc1N [Example 360]",
    "experimental-target": "Chk1 (Homo sapiens, UniProt O14757)",
    "recorded-measurement": "6.00 to 7.30"
  },
  {
    "compound": "CNC(=O)c1nc(-c2cccc(C(=O)NCc3cc(F)c(F)c(F)c3)c2)cnc1N [Example 316]",
    "experimental-target": "Chk1 (Homo sapiens, UniProt O14757)",
    "recorded-measurement": "6.00 to 7.30"
  },
  {
    "compound": "CNC(=O)c1nc(-c2cccc(C(=O)NCC3CCCO3)c2)cnc1N (centres unmarked) [Example 170]",
    "experimental-target": "Chk1 (Homo sapiens, UniProt O14757)",
    "recorded-measurement": "5.00 to 6.00"
  },
  {
    "compound": "CNC(=O)c1nc(-c2cccc(CNCc3cccc(C(F)(F)F)c3)c2)cnc1N [Example 426]",
    "experimental-target": "Chk1 (Homo sapiens, UniProt O14757)",
    "recorded-measurement": "6.00 to 7.30"
  },
  {
    "compound": "CNC(=O)c1nc(-c2cccc(C(=O)NCc3cc(Cl)ccc3F)c2)cnc1N [Example 277]",
    "experimental-target": "Chk1 (Homo sapiens, UniProt O14757)",
    "recorded-measurement": "6.00 to 7.30"
  }
]

Here is another compound to look at.
Quick one: pIC50 for CNC(=O)c1nc(-c2cccc(C(=O)NC3CCN(Cc4ccccc4)CC3)c2)cnc1N [Example 118] ?
6.00 to 7.30

Hello, the source for this data is patent US7704995B2, in case you need it.
